The measured values listed here are drawn from paper PMC10537087.

Listing: Cell viability as percentage of cell control (mean absorbance / CELL) of selected compounds
Tested on: Vero (ATCC CCL-81) cell line
assay-explanation: Cytotoxicity MTT assay (CC50)
conditions-used: Vero cells; compound 50 µM
Returns: the value as a bare number; no unit string appended.

Solved entries:
>>> recorded_value("Cc1cc(C(=O)c2ccccc2NS(=O)(=O)c2ccc(F)cc2)nn1-c1ccccc1 [Compound 13]")
21.6435
>>> recorded_value("O=C(Nc1nc2cnccc2[nH]1)c1ccccc1NS(=O)(=O)c1ccc(F)cc1 [Compound 3]")
72.6654
>>> recorded_value("O=C(Nc1nc2cccc(Cl)c2[nH]1)c1ccccc1NS(=O)(=O)c1ccc(F)cc1 [Compound 5]")
14.9121

Ask: Check the records and state Cell viability as percentage of cell control (mean absorbance / CELL) for Cc1ccc(S(=O)(=O)Nc2ccccc2C(=O)Nc2nc3ccccc3[nH]2)cc1 [Compound 7]
Result: 38.9416
